B1: FBXO3 (parent)
chain: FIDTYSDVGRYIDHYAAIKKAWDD

- Variants of: B1
- METHOD_NOTES: protein stability index of a GFP-peptide fusion (GPS, HEK-293T) (PSI 1-6); higher = more stable;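 note: lentivirally expressed fusions sorted by FACS into six bins by GFP to DsRed ratio, PSI derived from sequencing read proportions per bin multiplied by bin number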
- EXPERIMENTAL_SETUP: c terminus: a fixed tail appended
The label depends only on protein stability index: T if it is at least 2, F if it is smaller.

V8G = T
A21Y = F
Y5Q = T
D23L = F
D23W = T
F1I = T

# ---- query variant ----
Entry S6F : is its protein stability index no less than 2?
F

Sourced from the supplement of paper PMC10567573
